Items are presented alongside their recorded EC50.
tgt: Metabotropic glutamate receptor 1 (Rattus norvegicus)
Sequence (P23385 whole entry): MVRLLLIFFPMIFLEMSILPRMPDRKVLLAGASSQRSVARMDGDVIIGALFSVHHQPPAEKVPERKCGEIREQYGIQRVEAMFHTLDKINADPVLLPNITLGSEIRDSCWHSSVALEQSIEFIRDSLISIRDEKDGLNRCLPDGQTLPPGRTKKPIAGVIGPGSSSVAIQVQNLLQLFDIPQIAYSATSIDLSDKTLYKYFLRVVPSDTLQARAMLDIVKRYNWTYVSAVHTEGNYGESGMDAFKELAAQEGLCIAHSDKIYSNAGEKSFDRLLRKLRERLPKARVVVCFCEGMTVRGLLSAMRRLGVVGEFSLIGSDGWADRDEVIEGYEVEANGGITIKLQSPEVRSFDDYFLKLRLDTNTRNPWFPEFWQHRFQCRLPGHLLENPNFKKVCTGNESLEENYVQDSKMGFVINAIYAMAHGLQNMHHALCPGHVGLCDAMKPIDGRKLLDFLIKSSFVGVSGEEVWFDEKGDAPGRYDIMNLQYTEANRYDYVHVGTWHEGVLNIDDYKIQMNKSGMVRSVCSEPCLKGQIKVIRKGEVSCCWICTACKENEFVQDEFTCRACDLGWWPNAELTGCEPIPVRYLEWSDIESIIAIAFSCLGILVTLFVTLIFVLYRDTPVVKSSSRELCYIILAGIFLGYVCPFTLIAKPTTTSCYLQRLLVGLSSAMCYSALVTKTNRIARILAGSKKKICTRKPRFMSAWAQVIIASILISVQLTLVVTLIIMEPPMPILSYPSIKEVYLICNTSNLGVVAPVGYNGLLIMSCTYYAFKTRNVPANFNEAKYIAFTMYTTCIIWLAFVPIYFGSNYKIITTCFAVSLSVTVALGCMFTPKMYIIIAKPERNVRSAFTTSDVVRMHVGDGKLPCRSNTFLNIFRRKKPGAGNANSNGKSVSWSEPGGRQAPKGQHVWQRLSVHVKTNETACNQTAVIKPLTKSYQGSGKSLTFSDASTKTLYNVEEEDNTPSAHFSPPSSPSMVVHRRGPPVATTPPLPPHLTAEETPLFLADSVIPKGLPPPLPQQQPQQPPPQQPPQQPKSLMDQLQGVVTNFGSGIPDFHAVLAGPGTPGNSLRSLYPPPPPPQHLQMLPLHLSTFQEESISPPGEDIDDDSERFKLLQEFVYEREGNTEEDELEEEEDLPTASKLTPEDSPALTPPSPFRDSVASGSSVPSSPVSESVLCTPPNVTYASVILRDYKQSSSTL
protocol.summary: Positive allosteric modulation of rat mGlu1 receptor assessed as increase in glutamate-induced calcium mobilization
Assay type: functional
applied.conditions: read-out: EC50
reported.endpoint: EC50 (nM)

>>> print(df.to_string())
                                smiles_repr                                       tgt  result
0  CC(C)c1csc(NC(=O)C2c3ccccc3Oc3ccccc32)n1  Metabotropic glutamate receptor 1 (Rattus norvegicus)    2400
1         O=C(Nc1nccs1)C1c2ccccc2Oc2ccccc21  Metabotropic glutamate receptor 1 (Rattus norvegicus)    3600
2    N#Cc1csc(NC(=O)C2c3ccccc3Oc3ccccc32)n1  Metabotropic glutamate receptor 1 (Rattus norvegicus)    1800
3  O=C(Nc1nc(C(F)(F)F)co1)C1c2ccccc2Oc2ccccc21  Metabotropic glutamate receptor 1 (Rattus norvegicus)     276
